Hello, the source for this data is patent US7135457, in case you need it.

- tgt: T1, human PEPT1 (hPEPT1) receptor domain, amino acid residues 391-571, His-tag fusion protein (human, UniProt P46059 391-571)
- T1 construct: Expressed as His-tag fusion, purified under denaturing conditions, coated on plates; not shown: poly-histidine tag (pET His-tag) at the NH2-terminal end
- T1 sequence: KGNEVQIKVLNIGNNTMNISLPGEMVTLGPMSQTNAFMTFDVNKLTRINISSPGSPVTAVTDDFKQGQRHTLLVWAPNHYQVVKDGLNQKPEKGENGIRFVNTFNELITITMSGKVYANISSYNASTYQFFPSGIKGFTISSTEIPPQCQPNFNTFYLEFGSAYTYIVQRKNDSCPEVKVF
- experiment-description: phage ELISA, coated hPEPT1 domain
- Description: 6.6. Receptor ELISA Procedure 96 well plates were coated overnight with GIT receptor, BSA and, optionally, IDE (insulin degrading enzyme, an irrelevant His-fusion protein) or hTF. The plates were blocked for one hour with 0.5% BSA-PBS. After clarification, the amplified phage were diluted 1:100 in 1% BSA plus 0.05% Tween 20 in PBS and added to the plates. […] The plates were read at 650 nm absorbance.
Would you mind telling me the reported OD of each entry?
Numbers only, in OD 650 nm.

Consider the following illustrative entries.
SFQVYPDHGLERHALDGTGPLYAMPGRWIRARPQNRDRQ (pIII and flanks not included) [phage PAX45] = 0.419
SSADAEKCAGSLLWWGRQNNSGCGSPTKKHLKHRNRSQTSSSSH (pIII and flanks not included) [phage P90] = 1.12

Read the next record carefully.
Just so you know, measured OD for SSKVSSPRDPTVPRKGGNVDYGCGHRSSARMPTSALSSITKCYT (pIII and flanks not included) [phage PAX38] came out at 0.292
